System: Human rhinovirus sp.
Experiment notes: Antiviral activity against rhinoviral 4 serotype in a plaque inhibition assay using monolayers of M-HeLa cells
Format: functional, organism-based
Measured quantity: IC50 (µM)
Provide only the numeric value, understood in µM.

Illustrative cases are given below, each with its answer.
Cc1ccc(Cn2cnc3c(N(C)C)nc(C(F)(F)F)nc32)c(C)c1	7.6
CN(C)c1nc(C(F)(F)F)nc2c1ncn2Cc1ccc(Cl)c(N)c1	7.2
CN(C)c1nc(C(F)(F)F)nc2c1ncn2Cc1ccc(F)cc1	3.8
CC(C)Oc1ccc(Cn2cnc3c(N(C)C)nc(C(F)(F)F)nc32)cc1	3.7
Cc1ccc(Cn2cnc3c(N(C)C)nc(C(F)(F)F)nc32)cc1C	6

Please turn your attention to the following entry.
Ask: Requested field: IC50. Item: CN(C)c1nc(C(F)(F)F)nc2c1ncn2Cc1ccc(Br)cc1
Result: 7.6

###

Test system: Human rhinovirus sp.
Experiment notes: Percent inhibitory activity at 8 uM against rhinoviral 19s erotype in a plaque inhibition assay using monolayers of M-HeLa cells
Type: functional
Measured quantity: Inhibition (%)
Record the value in %, omitting the unit from your answer.

Here's what some known entries look like.
CN(C)c1nc(C(F)(F)F)nc2c1ncn2Cc1cccc(F)c1	28
Cc1ccc(Cn2cnc3c(N(C)C)nc(C(F)(F)F)nc32)c(C)c1	36
Cc1ccccc1Cn1cnc2c(N(C)C)nc(C(F)(F)F)nc21	19
CC(C)Oc1ccc(Cn2cnc3c(N(C)C)nc(C(F)(F)F)nc32)cc1	33

Ask: // returns reported Inhibition for input CN(C)c1nc(C(F)(F)F)nc2c1ncn2Cc1ccc(F)cc1
Result: 22

Ask: Entry CN(C)c1nc(C(F)(F)F)nc2c1ncn2Cc1ccc(Br)cc1 : reported Inhibition = ?
Result: 27

Ask: Which Inhibition is listed for CN(C)c1nc(C(F)(F)F)nc2c1ncn2Cc1ccccc1 ?
Result: 32

Ask: Looking for the measured Inhibition of CN(C)c1nc(C(F)(F)F)nc2c1ncn2Cc1ccc(Cl)cc1Cl , can you help?
Result: 40

Ask: Would you kindly share the measured Inhibition for CN(C)c1nc(C(F)(F)F)nc2c1ncn2Cc1ccc(Cl)c(N)c1 ?
Result: 40

Ask: # Inhibition lookup, item CN(C)c1nc(C(F)(F)F)nc2c1ncn2Cc1ccccc1Cl
Result: 27

Ask: # input compound: CN(C)c1ccc(Cn2cnc3c(N(C)C)nc(C(F)(F)F)nc32)cc1 ; wanted: its Inhibition
Result: 23

###

Each entry below carries its reported pIC50.
Tested on: Human rhinovirus sp.
Experiment notes: Antiviral activity against rhinoviral 19 serotype in a plaque inhibition assay using monolayers of M-HeLa cells
Assay type: functional, organism-based
The value called pIC50 is obtained by taking minus log10 of the concentration in mol/L.

Check out these entries, answers already filled in.
CN(C)c1nc(C(F)(F)F)nc2c1ncn2Cc1ccc(Cl)cc1	5.19
CSc1ccc(Cn2cnc3c(N(C)C)nc(C(F)(F)F)nc32)cc1	5.60

Ask: Look at this molecule and give its reported pIC50. CN(C)c1nc(C(F)(F)F)nc2c1ncn2Cc1ccc([N+](=O)[O-])cc1
Result: 5.06

Ask: // lookup pIC50 for CN(C)c1nc(C(F)(F)F)nc2c1ncn2Cc1ccc(C(F)(F)F)cc1
Result: 5.28

Ask: What value of measured pIC50 is listed for Cc1ccc(Cn2cnc3c(N(C)C)nc(C(F)(F)F)nc32)cc1C ?
Result: 5.15

Entry source: ChEMBL document CHEMBL1124634
